We begin with a simple list: items and their reported inhibition at 10 µM.
# Test system: Wnt activity (Wnt-responsive human Sp5 promoter, TCF/LEF binding sites) in SW480 colon carcinoma cells
# EXPERIMENTAL_DETAILS: Wnt activity screening assay: Sp5-Luc luciferase reporter gene in SW480 cells
# Format: cell-based
# MEASUREMENT_SETUP: given for EC50 of >10 μM, 10 μM, read-out: percent inhibition at 10 μM
REPORTED_METRIC: inhibition at 10 µM

COc1cccc(-c2nccc3[nH]c(-c4n[nH]c5ccc(-c6cncc(NC(=O)Cc7ccccc7)c6)nc45)nc23)c1 [Compound 1000] :: 31.1%
Fc1cccc(-c2nccc3[nH]c(-c4n[nH]c5ccc(-c6cnccn6)nc45)nc23)c1 [Compound 520] :: 12.2%
Cn1cc(-c2ccc3[nH]nc(-c4nc5c(-c6ccc(F)cc6)nccc5[nH]4)c3n2)c(CO)n1 [Compound 1128] :: 19.6%
O=C(Cc1ccccc1)Nc1cncc(-c2ccc3[nH]nc(-c4nc5c(-c6ccncc6)nccc5[nH]4)c3n2)c1 [Compound 122] :: 1%
CCCCC(=O)Nc1cncc(-c2ccc3[nH]nc(-c4nc5c(-c6ccccn6)nccc5[nH]4)c3n2)c1 [Compound 159] :: 1.2%
O=C(Nc1cncc(-c2ccc3[nH]nc(-c4nc5c(N6CCCCC6)nccc5[nH]4)c3n2)c1)C1CC1 [Compound 188] :: 19%
O=C(CC1CCNCC1)Nc1cncc(-c2ccc3[nH]nc(-c4nc5c(-c6ccsc6)nccc5[nH]4)c3n2)c1 [Compound 673] :: 22.6%

----------
# System: primary human mesenchymal stem cells (hMSCs)
# EXPERIMENTAL_DETAILS: Induction of chondrogenesis in hMSCs (nodule area, Rhodamine B / Nile Red)
# Type: cell-based
# MEASUREMENT_SETUP: TGF-β3 as positive control, read-out: Max. Activity as % TGF-β3 activity
REPORTED_METRIC: Emax (%)

c1cncc(-c2ccc3[nH]nc(-c4nc5cnccc5[nH]4)c3n2)c1 [Compound 256] :: 55
CC(C)C(=O)Nc1cncc(-c2ccc3[nH]nc(-c4nc5c(-c6ccccc6F)nccc5[nH]4)c3n2)c1 [Compound 65] :: 140
CN(C)CCOc1cncc(-c2ccc3[nH]nc(-c4nc5c(-c6cccc(F)c6)nccc5[nH]4)c3n2)c1 [Compound 515] :: 59
Cc1ccncc1-c1ccc2[nH]nc(-c3nc4c(-c5ccncc5)nccc4[nH]3)c2n1 [Compound 117] :: 53
Nc1cncc(-c2ccc3[nH]nc(-c4nc5c(-c6ccccc6F)nccc5[nH]4)c3n2)c1 [Compound 59] :: 108
CC(C)(C)C(=O)Nc1cncc(-c2ccc3[nH]nc(-c4nc5c(-c6ccc(Cl)s6)nccc5[nH]4)c3n2)c1 [Compound 1043] :: 67
O=C(Nc1cncc(-c2ccc3[nH]nc(-c4nc5c(-c6ccc(Cl)s6)nccc5[nH]4)c3n2)c1)C1CCC1 [Compound 1056] :: 60
c1cncc(-c2ccc3[nH]nc(-c4nc5c(-c6cccnc6)nccc5[nH]4)c3n2)c1 [Compound 88] :: 70
Cc1cn(-c2nccc3[nH]c(-c4n[nH]c5ccc(-c6cncc(CN7CCCC7)c6)nc45)nc23)cn1 [Compound 210] :: 50
Fc1cccc(-c2nccc3[nH]c(-c4n[nH]c5ccc(-c6cnccn6)nc45)nc23)c1 [Compound 520] :: 55
Cc1ccncc1-c1ccc2[nH]nc(-c3nc4c(-c5cc(F)cc(CNS(C)(=O)=O)c5)nccc4[nH]3)c2n1 [Compound 481] :: 30
CN1CCN(c2nccc3[nH]c(-c4n[nH]c5ccc(-c6cncc(N)c6)nc45)nc23)CC1 [Compound 227] :: 135
Cc1cn(-c2nccc3[nH]c(-c4n[nH]c5ccc(-c6cncc(NC(=O)CC(C)C)c6)nc45)nc23)cn1 [Compound 198] :: 69
CC(C)Nc1cncc(-c2ccc3[nH]nc(-c4nc5c(-c6ccoc6)nccc5[nH]4)c3n2)c1 [Compound 320] :: 76
CC(C)C(=O)Nc1cncc(-c2ccc3[nH]nc(-c4nc5c(-c6cccnc6)nccc5[nH]4)c3n2)c1 [Compound 93] :: 32
CN(C)Cc1cncc(-c2ccc3[nH]nc(-c4nc5c(N6CCCCC6)nccc5[nH]4)c3n2)c1 [Compound 181] :: 43

----------
We begin with a simple list: items and their reported inhibition at 10 µM.
# System: Wnt activity (Wnt-responsive human Sp5 promoter, TCF/LEF binding sites) in SW480 colon carcinoma cells
# EXPERIMENTAL_DETAILS: Wnt activity screening assay: Sp5-Luc luciferase reporter gene in SW480 cells
# Assay type: cell-based
# MEASUREMENT_SETUP: given for EC50 of >10 μM, 10 μM, read-out: percent inhibition at 10 μM
REPORTED_METRIC: inhibition at 10 µM (%)

Fc1cccc(-c2nccc3[nH]c(-c4n[nH]c5ccc(-c6cn[nH]c6)nc45)nc23)c1 :: 15
O=C(Cc1ccccc1)Nc1cncc(-c2ccc3[nH]nc(-c4nc5cnccc5[nH]4)c3n2)c1 :: 12.9
Cn1cc(-c2ccc3[nH]nc(-c4nc5c(-c6ccc7c(c6)OCO7)nccc5[nH]4)c3n2)c(CO)n1 :: 33.9
